Assay: Clinical Study #2: plasma pharmacokinetics of dextromethorphan, dextrorphan and quinidine, single and multiple dose
Conditions: human, in vivo, AUC (0-12) (plasma), mean, Day 1; EM; 30 mg DM HBr/25 mg Q sulfate capsule every 12 hours
measuredParameter: AUC(0-t) (ng·h/mL)
Report the value in ng·h/mL with no unit label.

Any idea what its AUC(0-t) is? The compound is COc1ccc2c(c1)[C@]13CCCCC1[C@H](C2)N(C)CC3 (single isomer, unassigned; (+)) [Dextromethorphan, (+)-3-methoxy-N-methylmorphinan]
133

Quick one: AUC(0-t) for CN1CC[C@@]23CCCC[C@@H]2[C@@H]1Cc1ccc(O)cc13 ?
934
